assay: qHTS for compounds that reverse cellular toxicity of Amyloid beta (A-beta) peptide in yeast: Primary Screen; settings: yeast expressing A-beta42, growth rescue, OD600, 48 h; series mostly up to 46.1 µM; further: nearly all actives have a fitted effect of over 55% in size
Hit rate of the full screen: of about 410,000 compounds, about 260 (0.063%) were called active. About 2% were inconclusive and are not listed. The call rests on the fitted dose curve; in most records, active means well fitted activation curve with a large enough effect; inconclusive means small, poorly fitted or top-dose-only effect; inactive means no such curve, though single readings can be large or run the other way. The sample as a whole holds a higher share of actives than the screen did.
Give one outcome, nothing more. List: active, inactive

compound	cat
COc1ccc(C2C(=O)N(C3CCCCC3)CC(=O)N2Cc2ccccc2Cl)cc1OC (stereo not drawn)	inactive
COc1cc2c(cc1OC)C(COc1ccc(F)cc1)N(C(=O)c1ccccc1F)CC2 (stereo not drawn)	inactive

Exercise: Which outcome did this test record for the compound COc1ccc(-c2cccc(NS(=O)(=O)c3cc(C)c(OC)c(C)c3C)c2)nn1 ?
Key: inactive

Exercise: How did this test come out for CC(C)(C)NC(=O)NC(=O)COC(=O)Cc1ccc(Cl)cc1Cl ?
Key: active

Exercise: For this compound, state the assay outcome: Cc1cccc(N2CCN(C3=C(c4ccccc4)C(=O)c4ccccc43)CC2)c1C
Key: inactive

Exercise: Record request — test call for O=C(CNS(=O)(=O)c1cccs1)N1CCN(c2ccccc2Cl)CC1
Key: inactive

Exercise: How did this test come out for Cc1ccc(Cl)cc1NC(=O)COC(=O)CC(C)(C)C ?
Key: inactive

Exercise: Entry CCOc1ccc(NC(=O)CCC(=O)N2CC(C)Oc3ccc(C)cc32)cc1 (stereo not drawn) : call = ?
Key: inactive
